assayed target: HIS-KRAS (G12C, aa 2-185) (Homo sapiens, UniProt P01116, G12C)
Construct: HIS-KRAS (G12C, aa 2-185, Sino biological)
Sequence (P01116 2-185 isoform P01116-2 G12C): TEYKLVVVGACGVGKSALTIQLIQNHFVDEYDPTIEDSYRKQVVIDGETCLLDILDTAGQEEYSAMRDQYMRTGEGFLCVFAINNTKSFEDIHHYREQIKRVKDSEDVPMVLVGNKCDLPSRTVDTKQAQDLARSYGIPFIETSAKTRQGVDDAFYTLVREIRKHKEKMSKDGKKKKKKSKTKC
measurement notes: SOS1 catalyzed nucleotide exchange assay (TR-FRET)
condition parameters: GDP-loaded HIS-KRAS (G12C) pre-incubated with compound 1 hour, SOS1 ExD and BODIPY FL GTP added, 4 hours at 25° C.
pIC50: −log10 of the molar value.
reported endpoint: pIC50

Incoming: State its pIC50: `C=CC(=O)N1CCN(c2c(C#N)c(OC[C@@H]3CCCN3C)nc3c2CCN(c2cccc4cccc(C)c24)C3)CC1`
Outgoing: < 6.00

Incoming: State its pIC50: `C=CC(=O)N1CCN(c2c(C#N)c(OC[C@@H]3CCCN3C)nc3c2CCN(c2cccc4cccc(C)c24)C3)C[C@H]1C`
Outgoing: < 6.00

Incoming: State its pIC50: `C=CC(=O)N1[C@H](C)CN(c2c(C#N)c(OC[C@@H]3CCCN3C)nc3c2CCN(c2cccc4cccc(C)c24)C3)C[C@@H]1C`
Outgoing: < 6.00

Incoming: State its pIC50: `C=CC(=O)N1CCN(c2c(C#N)c(OC[C@@H]3CCCN3C)nc3c2CCN(c2cccc4cccc(C)c24)C3)C[C@@H]1C`
Outgoing: < 6.00

Incoming: State its pIC50: `C=CC(=O)N1CC(Nc2c(C#N)c(OC[C@@H]3CCCN3C)nc3c2CCN(c2cccc4cccc(C)c24)C3)C1`
Outgoing: < 6.00

Incoming: State its pIC50: C=CC(=O)N1CCN(c2c(C#N)c(OC[C@@H]3CCCN3C)nc3c2CCN(c2cccc4cccc(C)c24)C3)CC1CC#N (stereo partly drawn)
Outgoing: 7.28
